System: P. aeruginosa ATCC 27853
Test: MIC broth microdilution, P. aeruginosa ATCC 27853
Format: cell-based
Conditions: Table 2; strain contains aph(3′)-IIb
Experimental: Minimum inhibitory concentrations for the example compounds herein are determined by the broth microdilution method in accordance with the Clinical and Laboratory Standards Institute (CLSI) guidelines. In brief, organism suspensions are adjusted to a 0.5 McFarland standard to yield a final inoculum between 3×10^5 and 7×10^5 colony-forming units (CFU)/mL. […] Following incubation, the lowest concentration of the compound that prevents visible growth (OD 600 nm<0.05) is recorded as the MIC. […]
Quick list: Geometric Mean MIC values, P. aeruginosa ATCC 27853 per entry.
Readout label: Geometric Mean MIC values, P. aeruginosa ATCC 27853 (µg/mL)

Compound	Measurement unit	Endpoint result
NCC1OC(OC2C(CO)OC(OC3C(O)C(N)CC(N)C3OC3OC(CN)C(O)C(F)C3O)C2O)C(N)C(O)C1O (stereo not drawn) [drawing 883]	µg/mL	2
NCC1OC(OC2C(N)CC(N)C(O)C2OC2OC(CO)C(OC3OC(CN)C(O)C(O)C3N)C2O)C(N)CC1O (stereo not drawn) [drawing 880, reference compound]	µg/mL	0.25
CC(N)C1CCC(N)C(OC2C(N)CC(N)C(O)C2OC2OC(CO)C(OC3OC(CN)C(O)C(O)C3N)C2O)O1 (stereo not drawn) [drawing 874]	µg/mL	2
NCC1OC(OC2C(CO)OC(OC3C(O)C(N)CC(N)C3OC3OC(CN)C(O)C(F)C3N)C2O)C(N)C(O)C1O (stereo not drawn) [drawing 884]	µg/mL	4
CC(N)C1CCC(N)C(OC2C(N)CC(N)C(O)C2OC2OC(CO)C(OC3OC(CN)C(O)C(O)C3N)C2O)O1 (stereo not drawn) [drawing 873]	µg/mL	0.84
NCC1OC(OC2C(CO)OC(OC3C(O)C(N)CC(N)C3OC3OC(CN)C(O)C(F)C3N)C2O)C(N)C(O)C1O (stereo not drawn) [drawing 882]	µg/mL	1
NC[C@@H]1O[C@H](O[C@H]2[C@@H](O)[C@H](O[C@@H]3[C@@H](O)[C@H](N)C[C@H](N)[C@H]3O[C@H]3O[C@H](CN)[C@@H](O)C(F)(F)[C@H]3N)O[C@@H]2CO)[C@H](N)[C@@H](O)[C@@H]1O	µg/mL	4
CCC(N)C1CCC(N)C(OC2C(N)CC(N)C(O)C2OC2OC(CO)C(OC3OC(CN)C(O)C(O)C3N)C2O)O1 (stereo not drawn) [drawing 876]	µg/mL	1.4
NC[C@@H]1O[C@H](O[C@H]2[C@@H](O)[C@H](O[C@@H]3[C@@H](O)[C@H](N)C[C@H](N)[C@H]3O[C@H]3O[C@H](CN)[C@@H](O)[C@H](O)[C@H]3N)O[C@@H]2CO)[C@H](N)[C@@H](O)[C@@H]1O [drawing 881, neomycin, reference compound]	µg/mL	1

====

System: P. aeruginosa ATCC 27853
Assay: MIC broth microdilution, P. aeruginosa ATCC 27853
Type: cell-based
Conditions: Table 2; strain contains aph(3′)-IIb
Readout label: Geometric Mean MIC values, P. aeruginosa ATCC 27853 (mg/L)

Compound	Endpoint result
NC[C@@H]1O[C@H](O[C@H]2[C@@H](O)[C@H](O[C@@H]3[C@@H](O)[C@H](N)C[C@H](N)[C@H]3O[C@H]3O[C@H](CN)C(F)(F)[C@H](O)[C@H]3N)O[C@@H]2CO)[C@H](N)[C@@H](O)[C@@H]1O	64
NC[C@@H]1O[C@H](O[C@H]2[C@@H](O)[C@H](O[C@@H]3[C@@H](O)[C@H](N)C[C@H](N)[C@H]3O[C@H]3O[C@H](CN)[C@H](O)[C@H](F)[C@H]3N)O[C@@H]2CO)[C@H](N)[C@@H](O)[C@@H]1O	1
CCC(N)C1CCC(N)C(OC2C(N)CC(N)C(O)C2OC2OC(CO)C(OC3OC(CN)C(O)C(O)C3N)C2O)O1 (centres unmarked) [drawing 877]	1
NCC1CCC(N)C(OC2C(N)CC(N)C(O)C2OC2OC(CO)C(OC3OC(CN)C(O)C(O)C3N)C2O)O1 (centres unmarked) [drawing 872, reference compound]	0.53
NCC1OC(OC2C(CO)OC(OC3C(O)C(N)CC(N)C3OC3OC(C4(N)CC4)CCC3N)C2O)C(N)C(O)C1O (centres unmarked) [drawing 875]	2
